Measured values drawn from patent US4738982A for this set.

target: HMG-CoA reductase (Rattus norvegicus)
Sequence (P51639 whole entry): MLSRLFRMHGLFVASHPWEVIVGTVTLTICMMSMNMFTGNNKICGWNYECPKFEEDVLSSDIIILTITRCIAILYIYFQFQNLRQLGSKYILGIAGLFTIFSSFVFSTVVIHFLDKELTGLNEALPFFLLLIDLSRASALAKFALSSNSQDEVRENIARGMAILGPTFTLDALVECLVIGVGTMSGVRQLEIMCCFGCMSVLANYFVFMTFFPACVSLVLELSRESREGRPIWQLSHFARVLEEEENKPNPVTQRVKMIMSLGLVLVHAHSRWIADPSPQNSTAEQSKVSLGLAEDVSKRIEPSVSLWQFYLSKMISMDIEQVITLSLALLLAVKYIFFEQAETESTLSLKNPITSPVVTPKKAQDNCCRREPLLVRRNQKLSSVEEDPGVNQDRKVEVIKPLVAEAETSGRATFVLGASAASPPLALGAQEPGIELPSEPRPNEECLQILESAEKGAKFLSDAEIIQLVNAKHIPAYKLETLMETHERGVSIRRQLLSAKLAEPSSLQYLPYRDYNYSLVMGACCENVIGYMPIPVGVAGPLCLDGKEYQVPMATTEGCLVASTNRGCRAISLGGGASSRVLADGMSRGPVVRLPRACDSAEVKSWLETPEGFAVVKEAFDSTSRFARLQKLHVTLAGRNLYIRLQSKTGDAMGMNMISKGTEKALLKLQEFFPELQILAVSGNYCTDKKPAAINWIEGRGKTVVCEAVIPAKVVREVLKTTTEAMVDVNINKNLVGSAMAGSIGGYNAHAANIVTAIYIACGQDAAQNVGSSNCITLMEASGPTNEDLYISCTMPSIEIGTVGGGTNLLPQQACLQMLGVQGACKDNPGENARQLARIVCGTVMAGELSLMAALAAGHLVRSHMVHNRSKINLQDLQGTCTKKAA
pIC50: −log10 of the molar value.

{"molecule": "CC[C@H](C)C(=O)O[C@H]1C[C@@H](C)CC2=CC(O)[C@H](C)C(CC[C@@H](O)C[C@@H](O)CC(=O)O)=C21 (stereo partly shown)", "tested-target": "HMG-CoA reductase (Rattus norvegicus)", "pIC50": 6.26}
